Ref: patent US9844554B2

# tested.on: D3 (Homo sapiens)
# Sequence (P35462 whole entry): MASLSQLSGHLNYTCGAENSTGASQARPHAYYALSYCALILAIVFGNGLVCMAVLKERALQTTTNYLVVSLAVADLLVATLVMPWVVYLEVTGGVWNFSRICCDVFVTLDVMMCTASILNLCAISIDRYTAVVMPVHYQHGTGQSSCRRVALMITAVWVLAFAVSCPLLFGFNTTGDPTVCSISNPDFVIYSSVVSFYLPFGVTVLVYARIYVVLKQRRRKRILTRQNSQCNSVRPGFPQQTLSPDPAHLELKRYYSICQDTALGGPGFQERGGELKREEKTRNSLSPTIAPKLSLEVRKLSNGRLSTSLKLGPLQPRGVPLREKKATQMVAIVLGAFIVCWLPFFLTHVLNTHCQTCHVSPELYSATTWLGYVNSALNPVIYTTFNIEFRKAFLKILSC
# assay.summary: Radioligand binding affinity, D3

[
  {
    "structure.as.smiles": "CS(=O)(=O)c1ccc2c(c1)N(CCCN1CCC(C(=O)O)CC1)c1ccccc1S2",
    "Ki": "> 100 nM"
  }
]

###

# tested.on: hERG channel (Homo sapiens, UniProt Q12809)
# Sequence (Q12809 whole entry): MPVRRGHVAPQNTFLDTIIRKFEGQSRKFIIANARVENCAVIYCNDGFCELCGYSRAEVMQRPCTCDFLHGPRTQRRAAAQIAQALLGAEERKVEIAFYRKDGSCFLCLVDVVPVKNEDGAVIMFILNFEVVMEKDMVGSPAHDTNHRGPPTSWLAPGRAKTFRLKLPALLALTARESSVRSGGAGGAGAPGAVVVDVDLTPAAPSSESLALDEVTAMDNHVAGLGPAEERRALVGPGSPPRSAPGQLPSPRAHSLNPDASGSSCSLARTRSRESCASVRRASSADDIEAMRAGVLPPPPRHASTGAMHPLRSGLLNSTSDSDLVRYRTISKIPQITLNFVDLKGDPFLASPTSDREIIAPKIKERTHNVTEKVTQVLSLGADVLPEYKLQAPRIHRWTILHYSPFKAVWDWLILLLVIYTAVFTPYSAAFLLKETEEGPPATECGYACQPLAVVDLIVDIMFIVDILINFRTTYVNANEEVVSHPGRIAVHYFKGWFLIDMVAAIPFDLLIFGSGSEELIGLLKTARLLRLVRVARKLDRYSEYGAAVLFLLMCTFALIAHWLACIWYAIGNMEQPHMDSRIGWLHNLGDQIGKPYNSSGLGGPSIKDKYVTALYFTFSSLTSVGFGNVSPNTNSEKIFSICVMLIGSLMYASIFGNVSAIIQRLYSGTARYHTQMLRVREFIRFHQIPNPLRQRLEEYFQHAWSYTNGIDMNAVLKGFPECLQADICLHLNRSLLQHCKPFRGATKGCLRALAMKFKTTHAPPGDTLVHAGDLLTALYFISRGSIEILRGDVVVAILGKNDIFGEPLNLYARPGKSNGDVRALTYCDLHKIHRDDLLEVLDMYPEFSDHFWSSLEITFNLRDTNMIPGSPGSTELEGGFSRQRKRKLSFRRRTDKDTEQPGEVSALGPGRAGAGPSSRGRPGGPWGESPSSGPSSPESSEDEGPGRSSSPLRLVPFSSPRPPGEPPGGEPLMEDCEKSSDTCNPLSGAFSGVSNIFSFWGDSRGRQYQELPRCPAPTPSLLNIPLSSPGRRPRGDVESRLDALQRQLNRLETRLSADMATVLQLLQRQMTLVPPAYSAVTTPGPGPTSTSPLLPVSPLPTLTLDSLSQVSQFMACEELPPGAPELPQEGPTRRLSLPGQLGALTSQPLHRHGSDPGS
# assay.summary: hERG voltage clamp assay in hERG-expressing cultured cells
# Format: cell-based
# reported.conditions: approximate, from voltage clamp data, read-out: concentration necessary to inhibit 50% of the tail currents mediated by hERG channels
pIC50: −log10 of the molar value.

[
  {
    "molecule": "CS(=O)(=O)c1ccc2c(c1)N(CCCN1CCC(C(N)=O)CC1)c1ccccc1S2 [Metopimazine]",
    "tested.on": "hERG channel (Homo sapiens, UniProt Q12809)",
    "pIC50": "~5.52"
  },
  {
    "molecule": "CS(=O)(=O)c1ccc2c(c1)N(CCCN1CCC(C(=O)O)CC1)c1ccccc1S2 [Metopimazine-Acid, metopimazine acid]",
    "tested.on": "hERG channel (Homo sapiens, UniProt Q12809)",
    "pIC50": "< 5.00"
  }
]

###

# tested.on: α1
# assay.summary: Radioligand binding affinity, α1
This listing pairs compounds with measured Ki.
quantity.kind: Ki (nM)

[
  {
    "structure.as.smiles": "CS(=O)(=O)c1ccc2c(c1)N(CCCN1CCC(C(=O)O)CC1)c1ccccc1S2",
    "quantity.kind": "Ki",
    "recorded.value": 210
  },
  {
    "structure.as.smiles": "CS(=O)(=O)c1ccc2c(c1)N(CCCN1CCC(C(N)=O)CC1)c1ccccc1S2",
    "quantity.kind": "Ki",
    "recorded.value": 1.9
  }
]
